Biological target: Sphingosine 1-phosphate receptor 2 (Homo sapiens)
Sequence (O95136 whole entry): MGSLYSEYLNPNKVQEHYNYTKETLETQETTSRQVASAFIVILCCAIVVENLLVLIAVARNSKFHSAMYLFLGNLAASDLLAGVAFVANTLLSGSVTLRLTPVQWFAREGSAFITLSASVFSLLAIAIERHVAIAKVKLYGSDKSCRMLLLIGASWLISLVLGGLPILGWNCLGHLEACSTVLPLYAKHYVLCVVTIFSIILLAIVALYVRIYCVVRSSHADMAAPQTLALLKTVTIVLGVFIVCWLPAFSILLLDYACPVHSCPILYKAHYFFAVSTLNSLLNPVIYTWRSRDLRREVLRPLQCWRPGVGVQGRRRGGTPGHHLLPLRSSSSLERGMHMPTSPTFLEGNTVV
Experiment: Inhibition of [33P]-S1P binding to human Sphingosine 1-phosphate receptor 2 expressed on CHO cell membranes
pIC50: −log10 of the molar value.
// values below are reported pIC50
MEASUREMENT KIND: pIC50

COMPOUND: CCCCCCCCCCCCCCN1CCCC1CCP(=O)(O)O (stereo not drawn)
MEASUREMENT KIND: pIC50
ENDPOINT RESULT: < 6.00

COMPOUND: CCCCCCCCCCCCCCNC1CCCCC1CP(=O)(O)O (stereo not drawn)
MEASUREMENT KIND: pIC50
ENDPOINT RESULT: < 6.00

COMPOUND: CCCCCCCCCCCCCCN1CCC(C(O)P(=O)(O)O)C1 (stereo not drawn)
MEASUREMENT KIND: pIC50
ENDPOINT RESULT: < 6.00

Every entry's value here was drawn from ChEMBL document CHEMBL1137868.
